study_system: furin, P09958;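 note: purified furin at 1:10 enzyme:substrate in 50 mM HEPES pH 7.5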
Sequence (P09958 whole entry): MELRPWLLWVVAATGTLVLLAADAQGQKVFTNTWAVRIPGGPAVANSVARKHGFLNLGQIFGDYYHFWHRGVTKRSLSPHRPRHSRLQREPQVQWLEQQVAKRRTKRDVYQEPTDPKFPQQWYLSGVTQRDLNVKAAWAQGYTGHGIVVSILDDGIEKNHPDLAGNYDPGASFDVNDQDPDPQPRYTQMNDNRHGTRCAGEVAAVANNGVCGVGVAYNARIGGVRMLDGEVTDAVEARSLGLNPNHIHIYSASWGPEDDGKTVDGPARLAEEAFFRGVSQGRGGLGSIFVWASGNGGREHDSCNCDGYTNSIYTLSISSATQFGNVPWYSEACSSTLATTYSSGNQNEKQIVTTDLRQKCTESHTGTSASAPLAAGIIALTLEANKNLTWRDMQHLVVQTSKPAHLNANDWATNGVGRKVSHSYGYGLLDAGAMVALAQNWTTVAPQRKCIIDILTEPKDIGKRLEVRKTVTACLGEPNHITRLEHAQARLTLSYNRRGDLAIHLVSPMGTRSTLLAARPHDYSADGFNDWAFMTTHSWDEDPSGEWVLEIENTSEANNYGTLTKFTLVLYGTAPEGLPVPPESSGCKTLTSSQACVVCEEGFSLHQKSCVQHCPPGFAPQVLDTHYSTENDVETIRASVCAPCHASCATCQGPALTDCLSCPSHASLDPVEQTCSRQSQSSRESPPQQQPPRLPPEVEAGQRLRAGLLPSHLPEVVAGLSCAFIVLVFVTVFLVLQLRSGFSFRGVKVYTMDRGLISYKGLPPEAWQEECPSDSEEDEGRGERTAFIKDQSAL
assay_comment: furin cleavage Z-score vs untreated control; higher = more cleavage, active = 3.5 or more, inactive = 1 or less, 8 variable residues between constant flanks
experimental_setup: 30 min
The list shows a part of the results. The true hit rate is not given.
endpoint_label: furin cleavage Z-score
Enter a number only.

INSERT INTO measurements (query_sequence, endpoint_label, observed_measurement) VALUES
  ('CAWPHRSRKAAGNASASA [FS-574]', 'furin cleavage Z-score', -0.0044);

Read the next record carefully.
Req: // query furin cleavage Z-score value for entry CAVMCCSMSYAGNASASA [HC2006]
Resp: 0.261

Source: the supplement of paper PMC3545927
